- targetSystem: T1, Human NKp46 Fc tag (Acro Biosystems, NC1-H5257) (human, UniProt O76036 22-255)
- T1 construct: bought; also called Fc-tagged human NKp46
- T1 sequence (O76036 22-255 limits assumed): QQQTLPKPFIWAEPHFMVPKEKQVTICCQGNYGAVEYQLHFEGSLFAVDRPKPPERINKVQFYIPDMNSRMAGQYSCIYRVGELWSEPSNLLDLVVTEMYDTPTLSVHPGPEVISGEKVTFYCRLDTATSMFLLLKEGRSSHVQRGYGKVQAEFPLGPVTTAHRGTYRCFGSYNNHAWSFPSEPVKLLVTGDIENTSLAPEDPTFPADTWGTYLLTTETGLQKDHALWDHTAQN
- procedureDetails: SPR Method 1 and/or 2
Numbered stars: 1 amine (or outer) side, 2 acyl side, 3 side chain; on linkers, the order of the positions; unused ones are H or OH. Bridge positions count the residues as written; N and C are the ends. Square brackets hold non-standard residues; d marks the D form. Ends that are not written are not given here. TATA = O=C(CC[*:1])N1CN(C(=O)CC[*:2])CN(C(=O)CC[*:3])C1; Agb = N=C(N)NCC[C@H](N)C(=O)O; Nle = CCCC[C@H](N)C(=O)O
assayEndpoint: Kd (nM)

• ACNLQAPCM[Nle]TGKVCA-NH2 (linker 2-8-15 via TATA, scaffold TATA) [BCY19703] = 1690
• ACYLPAYLCGDEYCA-NH2 (linker 2-9-14 via TATA; also: cyclised with TATA, TATB or TBMT, scaffold TATA) [BCY15656] = 34
• ACNLQAPCMLTG[Agb]VCA-NH2 (linker 2-8-15 via TATA; N-terminus assumed; SMILES CSCC[C@@H]1NC(=O)[C@@H]2CSCCC(=O)N3CN(CN(C3)C(=O)CCSC[C@@H](C(=O)N[C@@H](C)C(N)=O)NC(=O)[C@H](C(C)C)NC(=O)[C@H](CCNC(=N)N)NC(=O)CNC(=O)[C@H]([C@@H](C)O)NC(=O)[C@H](CC(C)C)NC1=O)C(=O)CCSC[C@H](NC(=O)[C@H](C)N)C(=O)N[C@@H](CC(N)=O)C(=O)N[C@@H](CC(C)C)C(=O)N[C@@H](CCC(N)=O)C(=O)N[C@@H](C)C(=O)N1CCC[C@H]1C(=O)N2, scaffold TATA) [BCY18324] = 1500
